Measured % Encapsulation efficiency values are reported for all entries that follow.
- Experiment Notes: Encapsulation of hydrophobic compounds into milk fat globules (loading capacity, encapsulation efficiency)
- Type: physicochemical, bovine
- Recorded Conditions: 2000 μM added compound, 10% v/v ethanol, 30 min, room temperature
Dear colleague, please return just the value in %, with no unit written.

Molecule: O=c1c(O)c(-c2ccc(O)c(O)c2)oc2cc(O)ccc12
Quantity Measured: % Encapsulation efficiency
Assay Result: 14.26

Molecule: O.O=c1c(O)c(-c2ccc(O)c(O)c2)oc2cc(O)cc(O)c12 [Quercetin hydrate]
Quantity Measured: % Encapsulation efficiency
Assay Result: 17.92

Molecule: C=CCc1ccc(O)c(OC)c1
Quantity Measured: % Encapsulation efficiency
Assay Result: 80.86

Molecule: C=C1CC[C@H](O)C/C1=C/C=C1\CCC[C@]2(C)[C@@H]([C@H](C)CCCC(C)C)CC[C@@H]12
Quantity Measured: % Encapsulation efficiency
Assay Result: 19.66

Consider the record given below.
Fill blank: measured % Encapsulation efficiency of the molecule CC(=O)OC/C=C(C)/C=C/C=C(C)/C=C/C1=C(C)CCCC1(C)C [Retinyl acetate] is ____.
76.89

====

- Experiment Notes: Encapsulation of hydrophobic compounds into milk fat globules (loading capacity, encapsulation efficiency)
- Assay type: physicochemical, bovine
- Recorded Conditions: maximal value over 50-2500 μM, 10% v/v ethanol, 30 min, room temperature
Each record here notes measured maximal loading capacity (LC).

See these solved cases before continuing.
Compound: CC(=O)OC/C=C(C)/C=C/C=C(C)/C=C/C1=C(C)CCCC1(C)C [Retinyl acetate]
maximal loading capacity (LC): 74.15 μg per gram of milk fat
--
Compound: C=C1CC[C@H](O)C/C1=C/C=C1\CCC[C@]2(C)[C@@H]([C@H](C)CCCC(C)C)CC[C@@H]12
maximal loading capacity (LC): 22.12 μg per gram of milk fat
--
Compound: C=CCc1ccc(O)c(OC)c1
maximal loading capacity (LC): 39.65 μg per gram of milk fat
--
Compound: O.O=c1c(O)c(-c2ccc(O)c(O)c2)oc2cc(O)cc(O)c12 [Quercetin hydrate]
maximal loading capacity (LC): 12.97 μg per gram of milk fat

Bench note: what maximal loading capacity (LC) did O=c1c(O)c(-c2ccc(O)c(O)c2)oc2cc(O)ccc12 show?
9.77 μg per gram of milk fat

====

- Experiment Notes: physchem
Quantity Measured: logP

Mol: C=CCc1ccc(O)c(OC)c1
Assay Result: ~2.6

// returns reported logP for input C=C1CC[C@H](O)C/C1=C/C=C1\CCC[C@]2(C)[C@@H]([C@H](C)CCCC(C)C)CC[C@@H]12
~7.5

====

Catalogue of logP values
- Experiment Notes: Water/octanol partitioning coefficient, Log P

What does the data say about its logP? Entry: CC(=O)OC/C=C(C)/C=C/C=C(C)/C=C/C1=C(C)CCCC1(C)C [Retinyl acetate]
~8

Name the reported logP value associated with the compound O=c1c(O)c(-c2ccc(O)c(O)c2)oc2cc(O)ccc12
~1.5

====

- Experiment Notes: Encapsulation of hydrophobic compounds into milk fat globules (loading capacity, encapsulation efficiency)
- Format: physicochemical, bovine
- Recorded Conditions: 500 μM added compound, 10% v/v ethanol, 30 min, room temperature
Classify: y when % Encapsulation efficiency is strictly less than 80%; n when % Encapsulation efficiency is not.

These solved cases illustrate the format of a correct answer.
Molecule: CC(=O)OC/C=C(C)/C=C/C=C(C)/C=C/C1=C(C)CCCC1(C)C [Retinyl acetate]
Assigned Label: y

Molecule: O=c1c(O)c(-c2ccc(O)c(O)c2)oc2cc(O)ccc12 [Fisetin]
Assigned Label: y

Molecule: C=C1CC[C@H](O)C/C1=C/C=C1\CCC[C@]2(C)[C@@H]([C@H](C)CCCC(C)C)CC[C@@H]12 [Cholecalciferol]
Assigned Label: y

Molecule: C=CCc1ccc(O)c(OC)c1 [Eugenol]
Assigned Label: n

Moving on to another molecule below.
Item O.O=c1c(O)c(-c2ccc(O)c(O)c2)oc2cc(O)cc(O)c12 [Quercetin hydrate] : % Encapsulation efficiency beneath 80%, strictly?
y

====

- Experiment Notes: Encapsulation of hydrophobic compounds into milk fat globules (loading capacity, encapsulation efficiency)
- Type: physicochemical, bovine
- Recorded Conditions: over tested concentrations, 10% v/v ethanol, 30 min
A collection of molecules and their measured encapsulation efficiency (EE %), maximal/overall value
Report only the number, with the unit % understood.

Molecule: O.O=c1c(O)c(-c2ccc(O)c(O)c2)oc2cc(O)cc(O)c12 [Quercetin hydrate]
Assay Result: 50

Name the recorded encapsulation efficiency (EE %), maximal/overall value for C=C1CC[C@H](O)C/C1=C/C=C1\CCC[C@]2(C)[C@@H]([C@H](C)CCCC(C)C)CC[C@@H]12 .
69

====

- Experiment Notes: Encapsulation of hydrophobic compounds into milk fat globules (loading capacity, encapsulation efficiency)
- Assay type: physicochemical, bovine
- Recorded Conditions: 200 μM added compound, 10% v/v ethanol, 30 min, room temperature
Quantity Measured: % Encapsulation efficiency (%)
Give the quantity in %, number only.

Example entries begin here.
Compound: C=C1CC[C@H](O)C/C1=C/C=C1\CCC[C@]2(C)[C@@H]([C@H](C)CCCC(C)C)CC[C@@H]12 [Cholecalciferol]
Assay Result: 63.59
//
Compound: O.O=c1c(O)c(-c2ccc(O)c(O)c2)oc2cc(O)cc(O)c12 [Quercetin hydrate]
Assay Result: 50.09
//
Compound: CC(=O)OC/C=C(C)/C=C/C=C(C)/C=C/C1=C(C)CCCC1(C)C [Retinyl acetate]
Assay Result: 110.33
//
Compound: C=CCc1ccc(O)c(OC)c1 [Eugenol]
Assay Result: 95.43

Proceeding to the next compound to report its % Encapsulation efficiency.
For O=c1c(O)c(-c2ccc(O)c(O)c2)oc2cc(O)ccc12 [Fisetin] , what is its reported % Encapsulation efficiency?
29.83

====

- Experiment Notes: Encapsulation of hydrophobic compounds into milk fat globules (loading capacity, encapsulation efficiency)
- Assay type: physicochemical, bovine
- Recorded Conditions: 1000 μM added compound, 10% v/v ethanol, 30 min, room temperature
Quantity Measured: % Encapsulation efficiency (%)
Express it in %; write the number only.

Compound: C=CCc1ccc(O)c(OC)c1 [Eugenol]
U: %
% Encapsulation efficiency: 80.94

Compound: C=C1CC[C@H](O)C/C1=C/C=C1\CCC[C@]2(C)[C@@H]([C@H](C)CCCC(C)C)CC[C@@H]12 [Cholecalciferol]
U: %
% Encapsulation efficiency: 24.77

Which % Encapsulation efficiency value is on record for O.O=c1c(O)c(-c2ccc(O)c(O)c2)oc2cc(O)cc(O)c12 [Quercetin hydrate] ?
12.91

Could you share which % Encapsulation efficiency value was measured for CC(=O)OC/C=C(C)/C=C/C=C(C)/C=C/C1=C(C)CCCC1(C)C [Retinyl acetate] ?
86.09

# % Encapsulation efficiency lookup, item O=c1c(O)c(-c2ccc(O)c(O)c2)oc2cc(O)ccc12 [Fisetin]
15.16

====

- Experiment Notes: Encapsulation of hydrophobic compounds into milk fat globules (loading capacity, encapsulation efficiency)
- Type: physicochemical, bovine
- Recorded Conditions: 250 μM added compound, 10% v/v ethanol, 30 min, room temperature
Assign class by % Encapsulation efficiency: not lower than 50% means Fulfilled; lower than 50% means Not fulfilled.

Here's what some known entries look like.
Molecule: O=c1c(O)c(-c2ccc(O)c(O)c2)oc2cc(O)ccc12
Assigned Label: Not fulfilled

Molecule: CC(=O)OC/C=C(C)/C=C/C=C(C)/C=C/C1=C(C)CCCC1(C)C [Retinyl acetate]
Assigned Label: Fulfilled

Turning now to a further molecule:
API: above_or_equal(metric=% Encapsulation efficiency, cutoff=50%) for item C=CCc1ccc(O)c(OC)c1
Fulfilled

====

- Experiment Notes: Encapsulation of hydrophobic compounds into milk fat globules (loading capacity, encapsulation efficiency)
- Type: physicochemical, bovine
- Recorded Conditions: 1500 μM added compound, 10% v/v ethanol, 30 min, room temperature
In this section, each of the molecules is paired with its reported % Encapsulation efficiency.
Give your result in % as a bare value.

The examples below pair each entry with its known result.
Molecule: O.O=c1c(O)c(-c2ccc(O)c(O)c2)oc2cc(O)cc(O)c12 [Quercetin hydrate]
% Encapsulation efficiency / %: 18.38
--
Molecule: C=C1CC[C@H](O)C/C1=C/C=C1\CCC[C@]2(C)[C@@H]([C@H](C)CCCC(C)C)CC[C@@H]12
% Encapsulation efficiency / %: 28.92
--
Molecule: O=c1c(O)c(-c2ccc(O)c(O)c2)oc2cc(O)ccc12
% Encapsulation efficiency / %: 7.57
--
Molecule: CC(=O)OC/C=C(C)/C=C/C=C(C)/C=C/C1=C(C)CCCC1(C)C [Retinyl acetate]
% Encapsulation efficiency / %: 82.14

Kindly consider the entry below.
Return reported % Encapsulation efficiency; argument: C=CCc1ccc(O)c(OC)c1
82.09

====

- Experiment Notes: Encapsulation of hydrophobic compounds into milk fat globules (loading capacity, encapsulation efficiency)
- Assay type: physicochemical, bovine
- Recorded Conditions: 2500 μM added compound, 10% v/v ethanol, 30 min, room temperature
Overview of reported % Encapsulation efficiency across a group of compounds:
Give just the numeric value; % need not be written.

Name the recorded % Encapsulation efficiency for O=c1c(O)c(-c2ccc(O)c(O)c2)oc2cc(O)ccc12 .
4.49
